- measuredOn: Human LDHA (Homo sapiens (Human), UniProt P00338)
- assayName: human LDHA primary biochemical assay
- conditionParameters: biochemical LDHA inhibitory activity, assay of Example 1; activity level classes defined in nM
Consider the following compounds; for each one, report its IC50.

What value of IC50 has been recorded for this entry: Cc1cc(C#Cc2cccc(-c3nn(-c4nc(C(=O)O)cs4)c(CCC4CC4)c3Cc3ccc(S(N)(=O)=O)c(F)c3)c2)c(C)s1 100 to 1000 nM

Follow-up item: NS(=O)(=O)c1ccc(Cc2c(-c3ccc(F)c(-c4ccc(C5CC5)c(F)c4)c3)nn(-c3nc(C(=O)O)cs3)c2CC2CC2)cc1F 100 to 1000 nM

Follow-up item: NS(=O)(=O)c1ccc(Cc2c(-c3cccc(C#Cc4ccc(C5CC5)s4)c3)nn(-c3nc(C(=O)O)cs3)c2CCC2CC2)cc1F 100 to 1000 nM

Follow-up item: Cc1nc(C#Cc2cccc(-c3nn(-c4nc(C(=O)O)cs4)c(CC4CC4)c3Cc3ccc(S(N)(=O)=O)c(F)c3)c2)cs1 < 100 nM

Follow-up item: Cc1cc(-c2cccc(-c3nn(-c4nc(C(=O)O)cs4)c(CC4CC4)c3Cc3ccc(S(N)(=O)=O)c(F)c3)c2)ccc1Cl 1000 to 57000 nM

Follow-up item: NS(=O)(=O)c1ccc(Cc2c(-c3cccc(-c4ccc(Cl)cc4)c3)nn(-c3nc(C(=O)O)cs3)c2CC2CC2)cc1F < 100 nM
